B1: CSNK1G1 (parent)
chain: GSLPWQGLKADTLKERYQKIGDTK

variants of: B1; assay: protein stability index of a GFP-peptide fusion (GPS, HEK-293T) (PSI 1-6); higher = more stable; details: c terminus: a fixed tail appended;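 further: lentivirally expressed fusions sorted by FACS into six bins by GFP to DsRed ratio, PSI derived from sequencing read proportions per bin multiplied by bin number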
Kindly return rule met if reported protein stability index is no lower than 4; return rule not met if it is lower.

[[record]]
variant_name = "A10S"
classification = "rule met"

[[record]]
variant_name = "K9V"
classification = "rule not met"

[[record]]
variant_name = "K14Y"
classification = "rule not met"

[[record]]
variant_name = "K24L"
classification = "rule not met"

[[record]]
variant_name = "D11H"
classification = "rule not met"

[[record]]
variant_name = "D11Q"
classification = "rule not met"

[[record]]
variant_name = "K9I"
classification = "rule not met"

[[record]]
variant_name = "A10Y"
classification = "rule not met"

[[record]]
variant_name = "Q18K"
classification = "rule not met"

[[record]]
variant_name = "I20M"
classification = "rule met"

[[record]]
variant_name = "R16D"
classification = "rule met"

[[record]]
variant_name = "K24H"
classification = "rule not met"

[[record]]
variant_name = "D22M"
classification = "rule not met"

[[record]]
variant_name = "D11N"
classification = "rule not met"

[[record]]
variant_name = "L13H"
classification = "rule met"

[[record]]
variant_name = "L8S"
classification = "rule met"

[[record]]
variant_name = "W5Q"
classification = "rule met"

[[record]]
variant_name = "D22R"
classification = "rule not met"

[[record]]
variant_name = "Q18M"
classification = "rule not met"

[[record]]
variant_name = "K14V"
classification = "rule met"

[[record]]
variant_name = "T23R"
classification = "rule not met"

[[record]]
variant_name = "S2A"
classification = "rule met"

[[record]]
variant_name = "E15Y"
classification = "rule not met"

[[record]]
variant_name = "G1V"
classification = "rule not met"

[[record]]
variant_name = "D22K"
classification = "rule not met"

[[record]]
variant_name = "R16C"
classification = "rule met"

[[record]]
variant_name = "T23D"
classification = "rule met"

[[record]]
variant_name = "K19Y"
classification = "rule not met"

[[record]]
variant_name = "L3A"
classification = "rule met"

[[record]]
variant_name = "Q6H"
classification = "rule met"

[[record]]
variant_name = "G21M"
classification = "rule not met"

[[record]]
variant_name = "P4R"
classification = "rule met"

[[record]]
variant_name = "L8N"
classification = "rule met"

[[record]]
variant_name = "Q18F"
classification = "rule not met"

[[record]]
variant_name = "W5M"
classification = "rule met"

[[record]]
variant_name = "R16P"
classification = "rule met"

[[record]]
variant_name = "E15I"
classification = "rule not met"

[[record]]
variant_name = "G7Y"
classification = "rule not met"

[[record]]
variant_name = "Q6W"
classification = "rule not met"

[[record]]
variant_name = "K24D"
classification = "rule not met"

[[record]]
variant_name = "L8C"
classification = "rule not met"

[[record]]
variant_name = "G21N"
classification = "rule not met"

[[record]]
variant_name = "K24M"
classification = "rule not met"

